- System: UO-31 renal
- experimental.details: NCI-60 one-dose screen, 48 h (100 = growth as untreated, 0 = no growth, -100 = all killed)
- assay.context: 10 µM unless noted
The panel holds about 83,000 compounds, 20% with a hit somewhere; the sample as a whole holds those more often.
Below, each of the molecules is paired with its reported growth value.

{"molecule": "Cc1cnc(-c2ccc(-c3ccc(NC(=O)Nc4c(F)cc(F)cc4F)cc3F)c3c2C(=O)NC3)[nH]1", "system.under.test": "UO-31 renal", "output.unit": "%", "growth": 50.3}
{"molecule": "C=C(C)[C@@H]1CC[C@]2(C(=O)N=C=S)CC[C@]3(C)[C@H](CC[C@@H]4[C@@]5(C)CCC(=O)C(C)(C)[C@@H]5CC[C@]43C)[C@@H]12", "system.under.test": "UO-31 renal", "output.unit": "%", "growth": 34.8}
{"molecule": "N#CC1(C#N)C2=C(CCCC2)NC(c2c(F)cccc2Cl)C1(C#N)C#N (configuration not stated)", "system.under.test": "UO-31 renal", "output.unit": "%", "growth": 70}
{"molecule": "C#C[C@@]1(O)[C@@H](CO)O[C@@H](n2cc(-c3ccco3)c3c(N)ncnc32)[C@@H]1O", "system.under.test": "UO-31 renal", "output.unit": "%", "growth": 36.5}
{"molecule": "COc1ccccc1C(=O)/C=C/c1cc2cccc(OC)c2[nH]c1=O", "system.under.test": "UO-31 renal", "output.unit": "%", "growth": -48.6}
{"molecule": "COC(=O)[C@]1(C)CCC[C@]2(C)[C@H]3C[C@H]4C(C(C)C)=C[C@]3(CC[C@H]21)[C@@H]1C(=O)N(CCC#N)C(=O)[C@@H]14", "system.under.test": "UO-31 renal", "output.unit": "%", "growth": 76.1}
{"molecule": "S=c1ssnc1-c1cc2ccccc2o1", "system.under.test": "UO-31 renal", "output.unit": "%", "growth": 52.5}
{"molecule": "O=c1[nH]nc(-c2ccccc2)c2sc(NC(=S)Nc3ccc(Cl)cc3)nc12", "system.under.test": "UO-31 renal", "output.unit": "%", "growth": 84.4}
{"molecule": "Nc1n[nH]c2cccc(C#Cc3cccc(NC(=O)c4cc(N5CCOCC5)cc(C(F)(F)F)c4)c3)c12", "system.under.test": "UO-31 renal", "output.unit": "%", "growth": 17.5}
{"molecule": "CN(C)CCCn1c2c(c3cc(-c4ccco4)ccc3c1=O)C(=O)c1ccccc1-2", "system.under.test": "UO-31 renal", "output.unit": "%", "growth": 51.6}
{"molecule": "COC(=O)c1nc(-c2ccccc2)oc1S(=O)(=O)n1nc(C)cc1N", "system.under.test": "UO-31 renal", "output.unit": "%", "growth": 51.4}
{"molecule": "COc1ccc(-c2cc(-c3nnc(SCC(=O)Nc4ccc(/C(C)=N\\O)cc4)o3)c3ccccc3n2)cc1", "system.under.test": "UO-31 renal", "output.unit": "%", "growth": 97.7}

###

- System: M14 melanoma
- experimental.details: NCI-60 one-dose screen, 48 h (100 = growth as untreated, 0 = no growth, -100 = all killed)
- assay.context: 10 µM unless noted
Compounds without any hit were thinned out: in the full panel of roughly 83,000, 20% have a hit.
reported.endpoint: growth (%)

{"compound": "C#CCN(CCCOc1ccc(Cl)cc1Cl)CCCSC(=O)CCCCCN1/C(=C\\C=C2/CCCC(/C=C/C3=[N+](CCCCCC(=O)[O-])c4ccccc4C3(C)C)=C2Cl)C(C)(C)c2ccccc21", "output.unit": "%", "readout.number": 49.7}
{"compound": "Cc1cc(O)cc(O)c1N=NC1=NCCS1", "output.unit": "%", "readout.number": 98}
{"compound": "COc1cc(C(=O)Nc2cc(O)c(C/C=C(\\C)CCC=C(C)C)c(O)c2)cc2c1O[C@]1(C)CC[C@@H](O)C(C)(C)[C@H]1C2", "output.unit": "%", "readout.number": -0.604}
{"compound": "Cc1cc(C)n(-c2nc(-c3cccs3)c(C#N)c(=O)[nH]2)n1", "output.unit": "%", "readout.number": 101}
{"compound": "CC(C)(C)CC(C)(C)Cc1ccc(OCCOCC[N+](C)(C)Cc2ccccc2)cc1", "output.unit": "%", "readout.number": 7.33}
{"compound": "COc1cc(F)c(-c2nc3c(C)cccc3n2Cc2c(F)cccc2F)c(F)c1", "output.unit": "%", "readout.number": 86.3}
{"compound": "FC(F)(F)c1ccc2c(Nc3cccc(C4CC(c5ccccc5)=NN4c4ccc(Cl)cc4)c3)ccnc2c1 (stereo not drawn)", "output.unit": "%", "readout.number": 41.2}
{"compound": "CCOc1ccccc1C(=O)/C=C/c1cc2ccccc2[nH]c1=O", "output.unit": "%", "readout.number": -20.4}
{"compound": "COc1cc(C2=N/C(=C\\c3cc4ccccc4nc3Oc3ccccc3)C(=O)N2C(=N)N)cc(OC)c1OC", "output.unit": "%", "readout.number": 74.2}
{"compound": "COc1cc2nc3c(=O)n(CCN(C)C)cnn3c(=O)c2cc1OC", "output.unit": "%", "readout.number": 95.5}
{"compound": "Cc1cc(C)cc(Nc2nccc(-c3c(-c4ccc(F)cc4)ncn3C3CCNCC3)n2)c1", "output.unit": "%", "readout.number": -86.4}
{"compound": "C=C1C(=O)O[C@H]2[C@H]1CC/C(COC(=O)CCCCCCC(=O)OC/C1=C/CC[C@@]3(C)O[C@H]3[C@H]3OC(=O)C(=C)[C@@H]3CC1)=C\\CC[C@@]1(C)O[C@@H]21", "output.unit": "%", "readout.number": 30.6}
{"compound": "O=C(C[n+]1cccc2cc(Cl)ccc21)c1ccc2c(c1)CCCC2", "output.unit": "%", "readout.number": 32.6}
